- Run description: Cytotoxicity against human HEK293T cells after 24 hrs by MTT assay
- Format: cell-based, HEK-293T
The following compounds are shown together with reported CC50 at 24 h values.

In: Identify the reported CC50 at 24 h for the following entry. CCC(C)NC(=O)c1ccccc1NC(=O)c1cccc(S(=O)(=O)Nc2ccc(O)cc2)c1 (stereo not drawn)
Out: > 250 µM

In: Identify the reported CC50 at 24 h for the following entry. O=C(Nc1ccccc1Cl)c1ccc2c(c1)C1C3CCC(C3)C1C(c1ccccc1)N2 (stereo not drawn)
Out: > 250 µM

In: Identify the reported CC50 at 24 h for the following entry. O=C(Nc1cnn(C23CC4CC(CC(C4)C2)C3)c1)c1cnn2c1NC(c1ccccc1)CC2C(F)(F)F (stereo not drawn)
Out: 30.1 µM

In: Identify the reported CC50 at 24 h for the following entry. "NC(=O)c1c(NC(=O)c2cnn3c(C(F)F)cc(-c4ccccc4)nc23)sc2c1CCCC2"
Out: > 250 µM

In: Identify the reported CC50 at 24 h for the following entry. CCC(C)NC(=O)c1ccccc1NC(=O)c1ccc(C)c(S(=O)(=O)Nc2cc(C)ccc2C)c1 (stereo not drawn)
Out: > 250 µM

====

- System: Human betaherpesvirus 5
- Run description: Inhibition of HCMV UL54 expressed in baculovirus interaction with UL44 expressed in baculovirus after 1 hr by ELISA
Calls of active or inactive are those of the source. No cut-off for these calls is given here.
Your response should consist of one outcome taken from Yes (active), No (inactive)

{"columns": ["Molecule", "Test system", "Cat"],
 "data": [
  ["CCC(C)NC(=O)c1ccccc1NC(=O)c1cccc(S(=O)(=O)Nc2ccccc2)c1 (stereo not given)", "Human betaherpesvirus 5", "No"]
]}

In: Per the records of this test, what outcome belongs to "NC(=O)c1c(NC(=O)c2nc3nc(-c4ccccc4)cc(C(F)(F)F)n3n2)sc2c1CCCC2" ?
Out: No

In: Per the records of this test, what outcome belongs to CCC(C)NC(=O)c1ccccc1NC(=O)c1cccc(S(=O)(=O)Nc2cc(C)ccc2C)c1 (stereo not given) ?
Out: No

In: Per the records of this test, what outcome belongs to "Cn1c(=O)cc2c3c(c(N4CCCCC4)ccc31)C(=O)c1ccccc1-2" ?
Out: Yes

In: Per the records of this test, what outcome belongs to CCC(C)NC(=O)c1ccccc1NC(=O)c1ccc(C)c(S(=O)(=O)Nc2cc(C)ccc2C)c1 (stereo not given) ?
Out: No

====

The following compounds are shown together with reported EC50 values.
- Run description: Inhibition of Influenza A virus (A/Parma/24/2009(H1N1)) infected in MDCK cells after 48 hrs by plaque reduction assay
- Assay type: functional, cell-based
Give the value in µM but do not write µM after it.

Observe how each entry below is paired with its result.
{"columns": ["Compound", "Measured parameter", "Assay value"],
 "data": [
  ["CCC(C)NC(=O)c1ccccc1NC(=O)c1cccc(S(=O)(=O)Nc2ccccc2)c1 (stereo not given)", "EC50", 43],
  ["NC(=O)c1c(NC(=O)c2cnn3c(C(F)F)cc(-c4ccccc4)nc23)sc2c1CCC2", "EC50", 95.5],
  ["NC(=O)c1c(NC(=O)c2nc3nc(-c4ccccc4)cc(C(F)(F)F)n3n2)sc2c1CCCC2", "EC50", 22.9],
  ["CCC(C)NC(=O)c1ccccc1NC(=O)c1cccc(S(=O)(=O)Nc2cc(C)ccc2C)c1 (stereo not given)", "EC50", 22.1]
]}

Turning now to a further compound:
In: Identify the reported EC50 for the following entry. CCC(C)NC(=O)c1ccccc1NC(=O)c1ccc(C)c(S(=O)(=O)Nc2cc(C)ccc2C)c1 (stereo not given)
Out: 25

====

- Tested on: Influenza A virus
- Run description: Inhibition of Influenza A virus A/[…]/67/05(H3N2) infected in MDCK cells after 48 hrs by plaque reduction assay
- Type: functional, organism-based
The following compounds are shown together with reported EC50 values.
Give the value in µM but do not write µM after it.

Observe how each entry below is paired with its result.
{"columns": ["Compound", "EC50 [µM]"],
 "data": [
  ["NC(=O)c1c(NC(=O)c2nc3nc(-c4ccccc4)cc(C(F)(F)F)n3n2)sc2c1CCCC2", 20],
  ["CCC(C)NC(=O)c1ccccc1NC(=O)c1cccc(S(=O)(=O)Nc2ccccc2)c1 (stereo not given)", 23.5],
  ["CCC(C)NC(=O)c1ccccc1NC(=O)c1cccc(S(=O)(=O)Nc2cc(C)ccc2C)c1 (stereo not given)", 10.8]
]}

Turning now to a further compound:
In: Please report the measured EC50 for CCC(C)NC(=O)c1ccccc1NC(=O)c1ccc(C)c(S(=O)(=O)Nc2cc(C)ccc2C)c1 (stereo not given) tested on Influenza A virus.
Out: 15.9

====

- Run description: Cytotoxicity against MDCK cells after 48 hrs by MTT assay
- Assay type: cell-based, Canis lupus familiaris
- Test parameters: dog
The following compounds are shown together with reported CC50 at 48 h values.

Observe how each entry below is paired with its result.
{"columns": ["Compound", "Assay value"],
 "data": [
  ["CCC(C)NC(=O)c1ccccc1NC(=O)c1cccc(S(=O)(=O)Nc2ccc(O)cc2)c1 (stereo not given)", "> 250 µM"],
  ["NC(=O)c1c(NC(=O)c2cnn3c(C(F)(F)F)cc(-c4ccccc4)nc23)sc2c1CCC2", "> 250 µM"],
  ["CCC(C)NC(=O)c1ccccc1NC(=O)c1ccc(C)c(S(=O)(=O)Nc2cc(C)ccc2C)c1 (stereo not given)", "> 250 µM"],
  ["O=C(Nc1cnn(C23CC4CC(CC(C4)C2)C3)c1)c1cnn2c1NC(c1ccccc1)CC2C(F)(F)F (stereo not given)", "20.2 µM"]
]}

Turning now to a further compound:
In: Identify the reported CC50 at 48 h for the following entry. "NC(=O)c1c(NC(=O)c2cccnc2)sc2c1CCCC2"
Out: 45.2 µM

====

- Run description: Metabolic stability in human liver microsomes assessed as compound remaining after 30 mins by HPLC-MS/MS analysis
- Assay type: ADME
- Test parameters: read-out: Stability
Measured parameter: remaining at 0.5 h (%)
Give the value in % but do not write % after it.

{"columns": ["Compound", "Assay value"],
 "data": [
  ["NC(=O)c1c(NC(=O)c2cnn3c(C(F)F)cc(-c4ccccc4)nc23)sc2c1CCC2", 37]
]}

Turning now to a further compound:
In: Identify the reported remaining at 0.5 h for the following entry. CCC(C)NC(=O)c1ccccc1NC(=O)c1cccc(S(=O)(=O)Nc2ccccc2)c1 (configuration not stated)
Out: 50

====

The following compounds are shown together with reported CC50 at 24 h values.
- Run description: Cytotoxicity against human HEK293T cells after 24 hrs by MTT assay
- Format: cell-based, HEK-293T

Observe how each entry below is paired with its result.
{"columns": ["Compound", "CC50 at 24 h"],
 "data": [
  ["O=C(Nc1ccc2c(c1)CCC2)c1cnn2c(C(F)(F)F)cc(-c3cccs3)nc12", "12.4 µM"],
  ["NC(=O)c1c(NC(=O)c2cnn3c(C(F)(F)F)cc(-c4ccccc4)nc23)sc2c1CCCC2", "> 250 µM"],
  ["CCC(C)NC(=O)c1ccccc1NC(=O)c1cccc(S(=O)(=O)Nc2ccccc2)c1 (stereo not drawn)", "> 250 µM"],
  ["NC(=O)c1ncn([C@@H]2O[C@H](CO)[C@@H](O)[C@H]2O)n1", "> 250 µM"]
]}

In: Identify the reported CC50 at 24 h for the following entry. "NC(=O)c1c(NC(=O)c2nc3nc(-c4ccccc4)cc(C(F)(F)F)n3n2)sc2c1CCCC2"
Out: > 250 µM

In: Identify the reported CC50 at 24 h for the following entry. "NC(=O)c1c(NC(=O)c2cnn3c(C(F)(F)F)cc(-c4ccccc4)nc23)sc2c1CCC2"
Out: > 250 µM

In: Identify the reported CC50 at 24 h for the following entry. CCC(C)NC(=O)c1ccccc1NC(=O)c1ccc(C)c(S(=O)(=O)Nc2cccc(NC(=O)c3ccccc3)c2)c1 (stereo not drawn)
Out: > 250 µM

In: Identify the reported CC50 at 24 h for the following entry. "NC(=O)c1c(NC(=O)c2cccnc2)sc2c1CCCC2"
Out: > 250 µM

In: Identify the reported CC50 at 24 h for the following entry. "NC(=O)c1c(NC(=O)c2cnn3c(C(F)F)cc(-c4ccccc4)nc23)sc2c1CCC2"
Out: > 250 µM

In: Identify the reported CC50 at 24 h for the following entry. CCC(C)NC(=O)c1ccccc1NC(=O)c1cccc(S(=O)(=O)Nc2cc(C)ccc2C)c1 (stereo not drawn)
Out: > 250 µM

In: Identify the reported CC50 at 24 h for the following entry. "Cc1ccc(-c2cc(C(F)(F)F)n3ncc(C(=O)Nc4sc5c(c4C(N)=O)CCCC5)c3n2)cc1"
Out: > 250 µM

In: Identify the reported CC50 at 24 h for the following entry. "Cc1ccc(C)c(NS(=O)(=O)c2cc(C(=O)Nc3ccccc3C(=O)Nc3ccccc3)ccc2C)c1"
Out: > 250 µM

In: Identify the reported CC50 at 24 h for the following entry. "COc1ccc(-c2cc(C(F)(F)F)n3ncc(C(=O)Nc4sc5c(c4C(N)=O)CCCC5)c3n2)cc1"
Out: 40.4 µM

Origin of values: ChEMBL document CHEMBL3286353
